system: MS2 coat protein; assay: apparent KD of MS2 coat protein; higher = weaker reporter binding; details: Eterna round: R107; input ligand: none
Form field: apparent KD of MS2 coat protein (one value per entry).
Unit nM implied. Number only.

Before answering, review these 3 worked examples.
| sequence code | unit string | apparent KD of MS2 coat protein |
| --- | --- | --- |
| CUAUAAGUAACUGAUACCAGUGUACUGACAUGAGGAUCACCCAUGUUGGGUUUUGUUGUACACCCUUGGCAGCAGAAUCUUAUAG [AstrosExyTheB#14] | nM | 63.8 |
| UAUAUAUAACAUGAGGAUCACCCAUGUAAACGAGGACCGGUACGGCCGCCACUCGGCCGGCAAGGGAGAGGACGGGAAACCGUCG [ETA NP+V+V2 #26] | nM | 12.8 |
| AAUAAUAAGGCGGCCGCCACUAAACAUGAGGAUCACCCAUGUCUCGAGGGCUUGCGUUGGGAAAGUAGGACCGGGCCAAUAAUAA [Exclusion - Tryptophan B (Freestyle 7)] | nM | 18.7 |

// lookup apparent KD of MS2 coat protein | system=MS2 coat protein | key= AAUGUGAUAGUCGUACUCUCACACUGAGAAGGAGCGCGAAAGUUCGCAGGUAGGUCGCUCAGUUAUACAUGAGGAUCACCCAUGU [Edgeised]
21

// lookup apparent KD of MS2 coat protein | system=MS2 coat protein | key= UACAUGAGGAUCACCCAUGUAUGAAGGGAUACCAGCGACAGUAAGCGCCCUUGGCAGCCCGUGAAUAAAGGGUGGGUAAAAUAGU [Exclusion Theophyline A GF 3]
21.4

// lookup apparent KD of MS2 coat protein | system=MS2 coat protein | key= AAGGUAUCACAGAGGUGAUUCAACUGUGAUACCAGCUAGGAAACUAGCCCUUGGCAGCACAUGAGGAUCACCCAUGUAAGAAUAA [(T)'-(M)'-(T1)-(T2)-(M1)-(M2)_Design3_2/19/17]
36.5

// lookup apparent KD of MS2 coat protein | system=MS2 coat protein | key= ACAUUUAACUGAAGGAGCGUGAUAUGUACAUGAGGAUCACCCAUGUCUUUCAUGUGAUUUUCACAGGUAGGUCGCAGACUAAUGA [JR_ExcArginiB_Sub003]
11.5

// lookup apparent KD of MS2 coat protein | system=MS2 coat protein | key= ACGAUAGGACACGAGGAUCACCCGUGUGAUACCAGCCUGGAAACAGGCCCUUGGCAGCACAAAUACUCCAAUAACCUAUCGAAUA [TheoAX 10 #MicroSwitchBubble #AlternativeMS2]
96.3

// lookup apparent KD of MS2 coat protein | system=MS2 coat protein | key= GCUAUGGCUGGAAGGAGCGUGAAUUUCAGCGAACAUGAGGAUCACCCAUGUAAGGAUAUGGCACAGGUAGGUCGCUAGCCAUAGC [#19 Same State - Arginine B]
14.3

// lookup apparent KD of MS2 coat protein | system=MS2 coat protein | key= CGUGGUGGGACGGAUACCAGCCACCGCGGCAACGCAACAUGAGGAUCACCCAUGUUGGGUGGCCCUUGGCAGCUGUCCUGCGACG [#1 Same State - Theophylline B Attempt #27 (HarryS)]
11.7

// lookup apparent KD of MS2 coat protein | system=MS2 coat protein | key= CAGUCAGUCAGUCAAUGAGUGAGGCAUGAAGGAGCGUGGGAAACCACAGGUAGGUCGCAUGCGGAACAUGAGGAUCACCCAUGUU [SSArg A #4]
27.2
